Biological target: T1, human PD-L1 on cells (human, UniProt Q9NZQ7 19-290)
T1 construct: Endogenous on MDA-MB-231 cells or transfected into HEK293FF cells (Sino Biological plasmid); the assay field says which; also called native PD-L1 on MDA-MB-231 cells; PD-L1 expressing MDA-MB-231 cells
T1 sequence (Q9NZQ7 19-290 limits assumed): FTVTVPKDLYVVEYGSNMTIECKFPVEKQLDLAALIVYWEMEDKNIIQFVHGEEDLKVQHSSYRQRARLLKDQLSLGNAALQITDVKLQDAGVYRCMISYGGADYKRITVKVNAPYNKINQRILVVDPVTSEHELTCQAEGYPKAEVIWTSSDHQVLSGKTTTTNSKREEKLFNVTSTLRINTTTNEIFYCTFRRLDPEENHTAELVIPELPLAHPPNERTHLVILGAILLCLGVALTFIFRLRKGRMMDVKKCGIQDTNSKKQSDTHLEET
Experiment: flow cytometry on MDA-MB-231 cells, pH 6
In this section, each of the binders is paired with its reported EC50.
Write down the numeric answer in nM and omit the unit.

>  <Binder>
8D04 mAb (antibody, V domains shown, Formatted into an IgG1; also called 8D04 IgG1) VH: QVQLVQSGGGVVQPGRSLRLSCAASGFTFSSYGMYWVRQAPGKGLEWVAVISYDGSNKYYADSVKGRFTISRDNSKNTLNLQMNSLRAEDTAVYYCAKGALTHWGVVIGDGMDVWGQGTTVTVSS VL: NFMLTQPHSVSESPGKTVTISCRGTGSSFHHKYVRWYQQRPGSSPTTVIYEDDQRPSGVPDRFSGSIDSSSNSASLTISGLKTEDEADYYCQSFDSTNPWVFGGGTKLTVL

>  <Output Unit>
nM

>  <EC50>
0.11

$$$$

Ask | Return the recorded EC50 value; entry: 8B06 mAb (antibody, V domains shown, Formatted into an IgG1; also called 8B06 IgG1) VH: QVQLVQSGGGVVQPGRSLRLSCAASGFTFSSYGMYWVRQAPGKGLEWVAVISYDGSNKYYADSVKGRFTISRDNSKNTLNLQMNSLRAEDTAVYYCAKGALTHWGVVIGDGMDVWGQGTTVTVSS VL: NFMLTQPHSVSESPGKTVTISCRETELSRRLHYVRWYQQRPGSSPTTVIYEDDQRPSGVPDRFSGSIDSSSNSASLTISGLKTEDEADYYCQSFDSTNPWVFGGGTKLTVL
Reply | 0.14

Just for reference, patent US20220356255A1 is where these values come from.
